Species on record: Rattus norvegicus
Experiment: Open TG-GATES - Regimen: Single
Type: toxicity, organism-based, Sprague-Dawley
Set-up: regimen Single, gender Male, age 6 weeks
Settings: in vivo, po, 0 mg/kg, 9 h, tissue Blood, route gavage, dose level Control
value.type: MCHC (%)
Report only the number, with the unit % understood.

CC(C)C(=O)Nc1ccc([N+](=O)[O-])c(C(F)(F)F)c1 [FLUTAMIDE]	34.2
O=C(O)c1cccnc1	33.3
C[C@](N)(Cc1ccc(O)c(O)c1)C(=O)O	33.7
O=C(N[C@H](CO)[C@H](O)c1ccc([N+](=O)[O-])cc1)C(Cl)Cl	31.5
CC(C)(S)[C@@H](N)C(=O)O	32.3
CN1C(=O)OC(C)(C)C1=O	33

Ask: What value of MCHC has been reported for the following molecule? `CCC(C)(C)C(=O)O[C@H]1C[C@@H](C)C=C2C=C[C@H](C)[C@H](CC[C@@H]3C[C@@H](O)CC(=O)O3)[C@H]21`
Result: 32.9

Ask: Next molecule: `CCc1oc2ccccc2c1C(=O)c1cc(I)c(O)c(I)c1`
Result: 34

Ask: Can you check `Oc1ncnc2[nH]ncc12` next?
Result: 33.7

Ask: How about this molecule: `C[C@]12CCC(=O)C=C1CC[C@@H]1[C@@H]2CC[C@@]2(C)[C@H]1CC[C@]2(C)O`
Result: 34.2

Ask: Thanks! And `CC(=O)Oc1cc(C(C)C)c(OCCN(C)C)cc1C` ?
Result: 34.4

Ask: // query: `Nc1nc(N)c2nc(-c3ccccc3)c(N)nc2n1`
Result: 33

Ask: Can you handle CCN1CCCC1CNC(=O)c1cc(S(N)(=O)=O)ccc1OC (stereo unspecified) [SULPIRIDE] next?
Result: 32

Ask: Same lookup for CC(=N)S [THIOACETAMIDE] , please.
Result: 33

Ask: Same read-out for `C#C[C@]1(O)CC[C@H]2[C@@H]3CCc4cc(O)ccc4[C@H]3CC[C@@]21C` ?
Result: 33.6

Ask: Next entry: `CCSCC[C@H](N)C(=O)O`
Result: 34

---

Species: Rattus norvegicus
Assay: Open TG-GATES - Regimen: Daily Repeat
Assay type: toxicity, organism-based, Sprague-Dawley
Parameters: regimen Daily Repeat, gender Male, age 6 weeks
Details: in vivo, po, 300 mg/kg, […], tissue Plasma, route gavage, dose level Middle, time 28 day
value.type: Cl (meq/L)
Write the answer as a number in meq/L, unit excluded.

The examples below pair each entry with its known result.
O=C(O)c1cccnc1	107
O=C(N[C@H](CO)[C@H](O)c1ccc([N+](=O)[O-])cc1)C(Cl)Cl	105
CCN1CCCC1CNC(=O)c1cc(S(N)(=O)=O)ccc1OC (centres undefined) [SULPIRIDE]	105.2

The record that follows has no Cl shown yet.
Ask: Quick one: Cl for `CC(C)(S)[C@@H](N)C(=O)O` ?
Result: 105.6

---

Species: Rattus norvegicus
Assay: Open TG-GATES - Regimen: Single
Assay type: toxicity, organism-based, Sprague-Dawley
Set-up: regimen Single, gender Male, age 6 weeks
Details: in vivo, po, 0 mg/kg, 9 h, tissue Blood, route gavage, dose level Control
value.type: MCV (fL)
Quick note: give the figure in fL, leave out the unit.

Known MCV results, listed for orientation:
O=C(N[C@H](CO)[C@H](O)c1ccc([N+](=O)[O-])cc1)C(Cl)Cl	68.1
CC(=N)S [THIOACETAMIDE]	66.7
CN1C(=O)OC(C)(C)C1=O	63.4
CC(C)C(=O)Nc1ccc([N+](=O)[O-])c(C(F)(F)F)c1 [FLUTAMIDE]	63.3
C[C@](N)(Cc1ccc(O)c(O)c1)C(=O)O	64.2
CC(C)(S)[C@@H](N)C(=O)O	65.3

Ask: Using the record for `CCc1oc2ccccc2c1C(=O)c1cc(I)c(O)c(I)c1` , report its MCV.
Result: 66
